The reported numbers originate from ChEMBL document CHEMBL3864131.

# assay info: Metabolic stability in mouse J774.1 cells at 37 degC after 24 hrs by HPLC analysis
# Type: ADME, cell-based
# run parameters: read-out: Stability
Simple rule here: remaining at 24 h less than 80% is label 1, otherwise label 0.

Query: Input O=C(OCCO)C1CCCCN1S(=O)(=O)Cc1ccccc1 (racemic) ; condition: remaining at 24 h strictly below 80%. Does it hold?
Reply: label 0

Query: Quick one: `COCCOc1cc(OCCOC)cc(C(=O)OCCOC(=O)[C@@H]2CCCCN2S(=O)(=O)Cc2ccccc2)c1`
Reply: label 1

Query: Entry to check: `C[C@@H](CNC(=O)c1cccnc1)OC(=O)[C@@H]1CCCCN1S(=O)(=O)Cc1ccccc1`
Reply: label 0

Query: Another compound to check: `O=C(OCCOc1cccnc1)[C@@H]1CCCCN1S(=O)(=O)Cc1ccccc1`
Reply: label 1

Query: Entry to check: `O=C(OCCOC(=O)[C@@H]1CCCCN1S(=O)(=O)Cc1ccccc1)c1cccnc1`
Reply: label 1

###

# assay info: in vitro
# run parameters: mouse, J774.1 cells
endpoint: IC50 at 24 h

Solved cases (2 shown):
>  <compound>
COCCOc1cc(OCCOC)cc(C(=O)OCCOC(=O)[C@@H]2CCCCN2S(=O)(=O)Cc2ccccc2)c1

>  <IC50 at 24 h>
> 80 µM

$$$$
>  <compound>
C[C@@H](CNC(=O)c1cccnc1)OC(=O)[C@@H]1CCCCN1S(=O)(=O)Cc1ccccc1

>  <IC50 at 24 h>
> 100 µM

$$$$

Query: Fill blank: measured IC50 at 24 h of the compound O=C(OCCCc1cccnc1)C1CCCCN1S(=O)(=O)Cc1ccc([N+](=O)[O-])cc1 (racemic) is ____.
Reply: 56.7 µM

Query: Same read-out for `COCCOc1cc(OCCOC)cc(C(=O)NCCOC(=O)[C@@H]2CCCCN2S(=O)(=O)Cc2ccccc2)c1` ?
Reply: > 100 µM

###

# assay info: in vitro
# run parameters: mouse, J774.1 cells
Each entry below lists one item and its recorded IC50 at 24 h value.

Record excerpt, results attached:
>  <molecule>
O=C(OCCCc1cccnc1)[C@@H]1CCCCN1S(=O)(=O)Cc1ccccc1

>  <IC50 at 24 h>
> 100 µM

$$$$
>  <molecule>
O=C(OCCOc1cccnc1)[C@@H]1CCCCN1S(=O)(=O)Cc1ccccc1

>  <IC50 at 24 h>
> 100 µM

$$$$
>  <molecule>
O=C(OCCO)C1CCCCN1S(=O)(=O)Cc1ccccc1 (racemic)

>  <IC50 at 24 h>
> 100 µM

$$$$
>  <molecule>
O=C(OCCOC(=O)[C@@H]1CCCCN1S(=O)(=O)Cc1ccccc1)c1cccnc1

>  <IC50 at 24 h>
> 100 µM

$$$$
>  <molecule>
Nc1cccc(CS(=O)(=O)N2CCCCC2C(=O)OCCCc2cccnc2)c1 (racemic)

>  <IC50 at 24 h>
62.3 µM

$$$$
>  <molecule>
O=C(OCCCc1cccnc1)[C@@H]1CCCCN1S(=O)(=O)Cc1cccc(Cl)c1

>  <IC50 at 24 h>
43.3 µM

$$$$
>  <molecule>
O=C(OCCCc1cccnc1)[C@@H]1CCCCN1S(=O)(=O)Cc1ccc(Cl)cc1

>  <IC50 at 24 h>
33.6 µM

$$$$
>  <molecule>
O=C(NCCOC(=O)[C@@H]1CCCCN1S(=O)(=O)Cc1ccccc1)c1cccnc1

>  <IC50 at 24 h>
> 100 µM

$$$$

Query: Suppose we examine the molecule O=C(OCCCc1cccnc1)C1CCCCN1S(=O)(=O)Cc1ccccc1 (racemic) ; what IC50 at 24 h value has been reported?
Reply: > 100 µM

Query: Now the molecule CC(C)OC(=O)C1CCCCN1S(=O)(=O)Cc1ccccc1 (racemic)
Reply: > 100 µM

###

# assay info: Stability of the compound in methanol/HEPES buffer at pH 7.8 at 40 degC for 24 hrs by HPLC analysis
# Assay type: physicochemical
# run parameters: read-out: Stability
endpoint: remaining at 24 h

Solved cases below.
>  <molecule>
O=C(OCCO)C1CCCCN1S(=O)(=O)Cc1ccccc1 (racemic)

>  <measured result>
> 95%

$$$$
>  <molecule>
CC(C)OC(=O)C1CCCCN1S(=O)(=O)Cc1ccccc1 (racemic)

>  <measured result>
> 95%

$$$$
>  <molecule>
O=C(OCCOc1cccnc1)[C@@H]1CCCCN1S(=O)(=O)Cc1ccccc1

>  <measured result>
> 95%

$$$$
>  <molecule>
COCCOc1cc(OCCOC)cc(C(=O)OCCOC(=O)[C@@H]2CCCCN2S(=O)(=O)Cc2ccccc2)c1

>  <measured result>
85%

$$$$

With those in mind, consider the next molecule.
Query: Would you mind telling me what remaining at 24 h value was observed for `COCCOc1cc(OCCOC)cc(C(=O)NCCOC(=O)[C@@H]2CCCCN2S(=O)(=O)Cc2ccccc2)c1` ?
Reply: > 95%

###

# experimental target: UniProt:Q70YI1
Binary call on IC50 with cut-off 10 µM: strictly below means yes (1), and equality or higher means no (0).

For orientation, consider the following solved cases.
>  <molecule>
CC(C)Nc1ccc(CS(=O)(=O)N2CCCCC2C(=O)OCCCc2cccnc2)cc1 (racemic)

>  <category>
no (0)

$$$$
>  <molecule>
O=C(NCCOC(=O)[C@@H]1CCCCN1S(=O)(=O)Cc1ccccc1)c1cccnc1

>  <category>
no (0)

$$$$
>  <molecule>
Nc1ccc(CS(=O)(=O)N2CCCCC2C(=O)OCCCc2cccnc2)cc1 (racemic)

>  <category>
no (0)

$$$$
>  <molecule>
O=C(OCCCc1cccnc1)[C@@H]1CCCCN1S(=O)(=O)Cc1cccc(Cl)c1

>  <category>
yes (1)

$$$$
>  <molecule>
O=C(OCCCc1cccnc1)[C@@H]1CCCCN1S(=O)(=O)Cc1ccc(Cl)cc1

>  <category>
yes (1)

$$$$

Query: Say whether its IC50 is strictly beneath 10 µM. Entry: O=C(OCCO)C1CCCCN1S(=O)(=O)Cc1ccccc1 (racemic)
Reply: no (0)

Query: Entry to check: `O=C(OCCOc1cccnc1)[C@@H]1CCCCN1S(=O)(=O)Cc1ccccc1`
Reply: yes (1)

Query: Okay, and `O=C(OCCCc1cccnc1)[C@@H]1CCCCN1S(=O)(=O)Cc1ccc(F)cc1` ?
Reply: yes (1)

###

# experimental target: Outer membrane protein MIP (Legionella pneumophila)
# Sequence (Q70YI1 21-233 limits assumed): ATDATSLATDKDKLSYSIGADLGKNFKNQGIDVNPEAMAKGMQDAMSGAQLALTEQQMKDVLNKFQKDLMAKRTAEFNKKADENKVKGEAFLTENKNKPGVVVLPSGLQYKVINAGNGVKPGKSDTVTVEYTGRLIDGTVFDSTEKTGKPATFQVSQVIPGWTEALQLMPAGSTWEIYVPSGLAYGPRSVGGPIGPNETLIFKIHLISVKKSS
Recorded IC50 for the following compounds
Field format: number, assumed µM, no unit text.

See these solved cases before continuing.
>  <compound>
C[C@@H](CNC(=O)c1cccnc1)OC(=O)[C@@H]1CCCCN1S(=O)(=O)Cc1ccccc1

>  <experimental target>
Outer membrane protein MIP (Legionella pneumophila)

>  <measured result>
3.5

$$$$
>  <compound>
O=C(OCCCc1cccnc1)[C@@H]1CCCCN1S(=O)(=O)Cc1ccccc1

>  <experimental target>
Outer membrane protein MIP (Legionella pneumophila)

>  <measured result>
5.8

$$$$
>  <compound>
O=C(OCCOC(=O)[C@@H]1CCCCN1S(=O)(=O)Cc1ccccc1)c1cccnc1

>  <experimental target>
Outer membrane protein MIP (Legionella pneumophila)

>  <measured result>
2.6

$$$$
>  <compound>
CC(C)OC(=O)C1CCCCN1S(=O)(=O)Cc1ccccc1 (racemic)

>  <experimental target>
Outer membrane protein MIP (Legionella pneumophila)

>  <measured result>
79.2

$$$$
>  <compound>
O=C(OCCCc1cccnc1)C1CCCCN1S(=O)(=O)Cc1ccc([N+](=O)[O-])cc1 (racemic)

>  <experimental target>
Outer membrane protein MIP (Legionella pneumophila)

>  <measured result>
3.9

$$$$

Query: Dear colleague, I am looking for the recorded IC50 of the following compound: `COc1cc(C(=O)NC[C@H](C)OC(=O)[C@@H]2CCCCN2S(=O)(=O)Cc2ccccc2)cc(OC)c1OC`
Reply: 2.2

###

IC50 at 24 h: recorded values
# assay info: in vitro
# run parameters: mouse, J774.1 cells

>  <compound>
O=C(C(=O)N1CCCC[C@H]1C(=O)OCCCc1cccnc1)c1ccccc1

>  <IC50 at 24 h>
88.1 µM

$$$$

Query: Find the recorded IC50 at 24 h belonging to O=C(OCCCc1cccnc1)C1CCCCN1S(=O)(=O)Cc1cccc([N+](=O)[O-])c1 (racemic) and report it.
Reply: 46.7 µM

Query: Next entry: `O=C(OCCCc1cccnc1)[C@@H]1CCCCN1S(=O)(=O)Cc1cccc([N+](=O)[O-])c1`
Reply: 48.2 µM

Query: Next: O=C(OCCCc1cccnc1)C1CCCCN1C(=O)COc1ccc(Cl)cc1 (racemic)
Reply: 50.9 µM

Query: Same question, C[C@H](CNC(=O)c1cccnc1)OC(=O)[C@@H]1CCCCN1S(=O)(=O)Cc1ccccc1 (single isomer, unassigned) this time
Reply: > 100 µM

Query: Another compound to look at: CC(C)Nc1cccc(CS(=O)(=O)N2CCCCC2C(=O)OCCCc2cccnc2)c1 (racemic)
Reply: 57.4 µM

Query: Quick one: `COc1cc(C(=O)NC[C@H](C)OC(=O)[C@@H]2CCCCN2S(=O)(=O)Cc2ccccc2)cc(OC)c1OC`
Reply: > 100 µM

Query: Another: `COc1cc(C(=O)NCCOC(=O)[C@@H]2CCCCN2S(=O)(=O)Cc2ccccc2)ccc1O`
Reply: > 100 µM

Query: Same thing, different compound: CC(C)Nc1ccc(CS(=O)(=O)N2CCCCC2C(=O)OCCCc2cccnc2)cc1 (racemic)
Reply: 44.3 µM
